# assay.method.text: NCI Yeast Anticancer Drug Screen. Data for the mgt1 strain (AID 153)
# particulars: S. cerevisiae mgt1 mutant growth inhibition; at 11.0 µM; active compounds read high
This is part of a sample that, as a whole, favours compounds with a hit. Of some 79,000 tested, about 15% had one in any assay. Active and inactive are the calls of the source. No stated cut-off is given here; in the data, active means growth inhibition above about 70%; inactive means the rest.
Examples of compounds with documented growth inhibition follow.

compound	growth inhibition
CCCCN(CCC#N)c1ccc(/C=C/c2ccnc3ccccc23)cc1	0% (inactive)
Cc1cc(C)c2[s+]snc2c1	6% (inactive)
CC1C(c2ccccc2)SC(=N)N1C (stereo not given)	0% (inactive)
O=C1C=C(Br)C(=O)c2ccccc21	96% (active)
Brc1ccc(B2Nc3ccccc3N2)cc1	10% (inactive)
O=C1C2=C(c3ccccc31)C(c1ccccc1)N1C(=O)CSC1=N2 (stereo not given)	-7% (inactive)
CC(=O)O/N=C1C=C/C(=C(/C#N)c2ccccc2)C=C/1C	75% (active)
O=C1c2ccccc2-c2ccc(N=Cc3ccccc3)cc21	-5% (inactive)
c1ccc2nc3c(nc2c1)sc1ccccc13	10% (inactive)
C/C1=C/C2OC(=O)C3(C)C2C(CC2(C)OC1=CC2=O)OC3(O)C(C)C (stereo not given)	8% (inactive)
NNc1ccccc1-c1nc2ccccc2[nH]1	0% (inactive)
Cc1ccc(C)c(C(=N)c2ccccc2Cc2ccccc2)c1	75% (active)
CC1(C2CC2)C(C#N)(C#N)C1(C#N)C#N	1% (inactive)
CC1CCC(C2=CSC3CCCCC3N2)CC1 (stereo not given)	9% (inactive)
Nc1cc2c(cc1N)-c1ccccc1C2=O	-2% (inactive)
CCCCCCNCCCNc1c2ccccc2nc2cccc([N+](=O)[O-])c12	11% (inactive)
NC(N)=NS(=O)(=O)c1ccc(Nc2c3ccccc3nc3c(C(=O)NC(CO)(CO)CO)cccc23)cc1	-2% (inactive)
Nc1cc(Cl)ccc1Nc1ccccc1	-10% (inactive)
O=C1NC(c2cccc(OCc3ccccc3)c2)Nc2ccccc21 (stereo not given)	-35% (inactive)
CCC(/C=C/c1ccccc1)=N\Nc1ccc(Cl)c(Cl)c1	-4% (inactive)
O=C(C(Cl)=C(N1CCCCC1)N1CCCCC1)C(Cl)Cl	-4% (inactive)
CCC[CH2][Sn]([CH2]CCC)([CH2]CCC)/[C](=C/[Si](C)(C)c1ccccc1)c1ccc2c(c1)OCO2	95% (active)
NC(CS)C(=O)NCCNc1ccc(NCCNC(=O)C(N)CS)c2c1C(=O)c1c(O)ccc(O)c1C2=O (stereo not given)	23% (inactive)
CCN(CC)CCCNc1ccc([N+](=O)[O-])c2nc3ccc(OC)cc3c(NCCCN(CC)CC)c12	3% (inactive)
CNC(=O)OCc1c2ccncc2c(C)c2c1[nH]c1ccccc12	18% (inactive)
COc1cc2oc3ccccc3c(=O)c2cc1CSc1ccccc1N	-2% (inactive)
CCCCCCCCCCCNC=O	-18% (inactive)
CCC[CH2][Ge]([CH2]CCC)([CH2]CCC)[O]C(=O)C(O)c1ccccc1 (stereo not given)	10% (inactive)
COc1ccc2nc3cccc([N+](=O)[O-])c3c(NCCCCCC(=O)O)c2c1	91% (active)
O=C1Nc2ccc(Br)cc2C1=Nc1ccc(Cl)cc1	-21% (inactive)

* * *

# assay.method.text: NCI Yeast Anticancer Drug Screen. Data for the bub3 strain (AID 167)
# particulars: S. cerevisiae bub3 mutant strain, at 11.0 µM, active compounds read high
# Procedure: Growth inhibition of yeast strains with defined genetic alterations is measured as a screen for potential anti-cancer activity. Selected strains with alterations in DNA damage repair or cell cycle control were exposed to compounds and growth inhibition was measured relative to vehicle treated controls. The strain used in this assay is bub3
The panel holds about 79,000 compounds, 15% with a hit somewhere; the sample as a whole holds those more often. Activity calls are given as the source filed them. No stated cut-off is given here; in the data, active means growth inhibition above about 70%; inactive means the rest.
Examples of molecules with documented growth inhibition follow.
measured.quantity: growth inhibition

molecule	observed
CC(C)N(CCCNc1c2ccccc2nc2cccc([N+](=O)[O-])c12)C(C)C	17% (inactive)
Brc1ccc(B2Nc3ccccc3N2)cc1	15% (inactive)
O=[N+]([O-])c1ccc(/C=C\c2ccc3c(c2)OCO3)c([N+](=O)[O-])c1	-5% (inactive)
CC(C)Cc1ncc(CCCN=C(N)N)[nH]c1=O	-10% (inactive)
O=C1CC(C(O)(C(F)(F)F)C(F)(F)Cl)CCC1C(O)(C(F)(F)F)C(F)(F)Cl (stereo not drawn)	76% (active)
O=c1[nH]c2c([N+](=O)[O-])cccc2c2ccccc12	0% (inactive)
N#CCC(=O)N/N=C(\c1ccccc1)C(c1ccccc1)C1(O)C(=O)Nc2c(Cl)ccc(Cl)c21 (stereo not drawn)	11% (inactive)
CC(=O)/C(=C\c1ccc(Cl)c(Cl)c1)C(=O)C(C)CN(C)C (stereo not drawn)	11% (inactive)
Cc1oc2ccccc2c(=O)c1Cn1nnc2ccccc21	0% (inactive)
BrC1C2CCC3OC3C12 (stereo not drawn)	42% (inactive)
C=CCNC1=C2C[C@@H](C)C[C@H](OC)[C@H](O)[C@@H](C)/C=C(\C)[C@H](OC(N)=O)[C@@H](OC)/C=C\C=C(/C)C(=O)NC(=CC1=O)C2=O	74% (active)
O=C1C(=C2CCCC2)CCC1CN1CCCCC1 (stereo not drawn)	18% (inactive)
O=C(NCCCCN1CC2CCCC2C1)C(C1CCCCC1)C1CCCCC1 (stereo not drawn)	42% (inactive)
CCN(CC)C(=S)SC(=S)N(CC)CC	-22% (inactive)
O=C(O)/C=C\C(=O)Nc1ccc2c(c1)Cc1cc(Cl)ccc1-2	-7% (inactive)
Cc1c(Cl)c(C)c(Cl)c(O)c1Cl	12% (inactive)
CCC[CH2][Ge]([CH2]CCC)([CH2]CCC)[O]C(=O)C(O)c1ccccc1 (stereo not drawn)	24% (inactive)
O=S(=O)(c1cccc(C(F)(F)F)c1)N1c2ccccc2-n2cccc2C1c1cccnc1 (stereo not drawn)	62% (inactive)
CN(C)/C(=N/C(=S)Nc1ccccc1)SCc1ccccc1	3% (inactive)
Cc1ccc(C)c(C(=N)c2ccccc2Cc2ccccc2)c1	77% (active)
O=c1c2ccccc2nc(-c2ccc(Cl)cc2)n1O	78% (active)
COC(=N)c1ccc(O)c(C)c1	0% (inactive)
COc1ccc(/C=C2\SC(=S)N(/C=C3\C(=O)N(c4ccccc4)N=C3C)C2=O)cc1OC	11% (inactive)
CNC(=O)OCc1c2ccncc2c(C)c2c1[nH]c1ccccc12	-27% (inactive)
O=C(Cc1ccccc1)NN1C(=O)C(Cl)C1c1cc(Br)cc(Br)c1O (stereo not drawn)	94% (active)
CCOP(=O)(OCC)/C(C#N)=C/c1cccc(Oc2ccccc2)c1	41% (inactive)
CCC(/C=C/c1ccccc1)=N\Nc1ccc(Cl)c(Cl)c1	14% (inactive)
N#CSCC1COc2ccccc2O1 (stereo not drawn)	-16% (inactive)
COc1ccccc1/C=C\C(=O)C1COCN1 (stereo not drawn)	18% (inactive)
O=C(CCCN1CCC(Nc2ccc(F)cc2)(c2nnnn2C2CCCCC2)CC1)c1ccc(F)cc1	-6% (inactive)
O=C(Cc1ccccc1)NNc1nc(NNC(=O)c2ccncc2)nc(Nc2ccc(Cl)cc2)n1	-4% (inactive)
CC(C)S(=O)(=O)/C=C\S(=O)(=O)C(C)C	5% (inactive)
O=C1Nc2ccc(Br)cc2C1=Nc1cccnc1	-38% (inactive)
